# assay_procedure: Phase 1 study in healthy volunteers, oral suspension
# Type: in vivo, human
# test_conditions: both sexes, human, plasma, po, fasting, 200–4000 mg single oral dose; read-out: median Tmax
endpoint_name: Tmax

Give the reported value of Tmax for this record: C[C@@H]1CN2c3c(cc4c(N5C(=O)OC[C@@H]5C)noc4c3F)CC3(C(=O)NC(=O)NC3=O)[C@H]2[C@H](C)O1 [ETX0914]
1.5 to 2.26 h

* * *

# assay_procedure: Phase 1 study in healthy volunteers, oral suspension
# Type: in vivo, human
# test_conditions: both sexes, human, plasma, oral, 3000 mg, with food; read-out: Tmax
endpoint_name: Tmax (h)
Answer in h, number only, no unit symbol.

Give the reported value of Tmax for this record: `C[C@@H]1CN2c3c(cc4c(N5C(=O)OC[C@@H]5C)noc4c3F)CC3(C(=O)NC(=O)NC3=O)[C@H]2[C@H](C)O1`
4

* * *

# assay_procedure: 28 day oral toxicology study, rat
# Assay type: in vivo, Han Wistar rat
# test_conditions: both sexes, Han Wistar, plasma; 1 month rat (po), 200 mg/kg/day
endpoint_name: AUC (µg·h/mL)
Answer in µg·h/mL, number only, no unit symbol.

Give the reported value of AUC for this record: `C[C@@H]1CN2c3c(cc4c(N5C(=O)OC[C@@H]5C)noc4c3F)CC3(C(=O)NC(=O)NC3=O)[C@H]2[C@H](C)O1`
1100

* * *

# assay_procedure: physchem
endpoint_name: log10(solubility) (log10 of the value in µM)
Units before log transform: µM; reported quantity: solubility; transform: log10.

Worked examples follow.
| query_smiles | log10(solubility) |
| --- | --- |
| C[C@@H]1CN2c3c(cc4c(N5C(=O)OC[C@@H]5C)noc4c3F)CC3(C(=O)NC(=O)NC3=O)[C@H]2[C@H](C)O1 | 2.59 |
| C[C@@H]1CN2c3c(cc4c(-n5cncn5)noc4c3F)CC3(C(=O)NC(=O)NC3=O)[C@H]2[C@H](C)O1 | 1.86 |
| C[C@@H]1CN2c3c(cc4c(C(=O)NCC(F)(F)F)noc4c3F)CC3(C(=O)NC(=O)NC3=O)[C@H]2[C@H](C)O1 | 1.89 |
| Cc1nnc(-c2noc3c(F)c4c(cc23)CC2(C(=O)NC(=O)NC2=O)[C@H]2[C@H](C)O[C@H](C)CN42)o1 | 3.13 |

Give the reported value of log10(solubility) for this record: `Cc1noc2c(F)c3c(cc12)CC1(C(=O)NC(=O)NC1=O)[C@H]1[C@H](C)O[C@H](C)CN31`
2.32

* * *

# assay_procedure: 28 day oral toxicology study, dog
# test_conditions: both, beagle, dog, plasma, po, 100 mg/kg/day
endpoint_name: Cmax (µg/mL)
Answer in µg/mL, number only, no unit symbol.

Give the reported value of Cmax for this record: `C[C@@H]1CN2c3c(cc4c(N5C(=O)OC[C@@H]5C)noc4c3F)CC3(C(=O)NC(=O)NC3=O)[C@H]2[C@H](C)O1`
90

* * *

# System: mouse lymphoma cells
# assay_procedure: in vitro mouse micronucleus aberration assay (MMA)
# Format: cell-based
# test_conditions: in vitro
Collected Micronucleus NOEL values appear next to each entry.
Answer in µM, number only, no unit symbol.

Give the reported value of Micronucleus NOEL for this record: Cc1noc2c(F)c3c(cc12)CC1(C(=O)NC(=O)NC1=O)[C@H]1[C@H](C)O[C@H](C)CN31 [Compound 5]
50

Give the reported value of Micronucleus NOEL for this record: C[C@@H]1CN2c3c(cc4c(C(=O)NCC(F)(F)F)noc4c3F)CC3(C(=O)NC(=O)NC3=O)[C@H]2[C@H](C)O1 [Compound 7]
100

Give the reported value of Micronucleus NOEL for this record: C[C@@H]1CN2c3c(cc4c(-n5cncn5)noc4c3F)CC3(C(=O)NC(=O)NC3=O)[C@H]2[C@H](C)O1 [Compound 6]
3

Give the reported value of Micronucleus NOEL for this record: CO/N=C1\CN(c2nc3c(cc2F)c(=O)c(C(=O)O)cn3C2CC2)CC1CN (stereo not drawn) [Gemifloxacin, reference compound]
3

Origin of values: paper PMC4501059
